RECORDED METRIC: AC50

INPUT: Form: Entry = `O=C1CCc2cc(OCCCCc3nnnn3C3CCCCC3)ccc2N1` | System = Melanocortin receptor 3 (Homo sapiens, UniProt P41968) | AC50 = ____; also: assay procedure not described here
OUTPUT: > 30 µM

INPUT: Can you look up AC50 on Melanocortin receptor 3 (Homo sapiens, UniProt P41968) for CC(C)NCC(O)c1ccc(O)c(O)c1 (centres undefined) ?
OUTPUT: > 30 µM

INPUT: Kindly state the measured AC50 obtained for CCCCCC(=O)O[C@]1(C(C)=O)CC[C@H]2[C@@H]3CCC4=CC(=O)CC[C@]4(C)[C@H]3CC[C@@]21C [HYDROXYPROGESTERONE CAPROATE] with Melanocortin receptor 3 (Homo sapiens, UniProt P41968).
Sequence (P41968 whole entry): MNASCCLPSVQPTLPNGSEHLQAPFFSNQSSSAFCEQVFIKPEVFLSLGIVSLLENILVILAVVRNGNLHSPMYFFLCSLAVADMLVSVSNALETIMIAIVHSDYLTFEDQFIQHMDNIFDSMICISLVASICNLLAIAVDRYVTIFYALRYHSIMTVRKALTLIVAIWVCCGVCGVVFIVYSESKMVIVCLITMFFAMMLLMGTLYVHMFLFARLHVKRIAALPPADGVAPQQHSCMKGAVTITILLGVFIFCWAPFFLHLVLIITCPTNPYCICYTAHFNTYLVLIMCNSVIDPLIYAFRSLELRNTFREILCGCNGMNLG
OUTPUT: > 30 µM

INPUT: // lookup AC50 | system=Melanocortin receptor 3 (Homo sapiens, UniProt P41968) | key= CC(C(=O)O)c1ccc2c(c1)[nH]c1ccc(Cl)cc12 (centres undefined); also: assay procedure not described here
OUTPUT: > 30 µM

INPUT: Find AC50 (Melanocortin receptor 3 (Homo sapiens, UniProt P41968)) for the entry `C/N=C(\NC)NCc1ccccc1`
OUTPUT: > 30 µM

INPUT: Notebook entry, Melanocortin receptor 3 (Homo sapiens, UniProt P41968) assay: AC50 of `CCN(CC)CCNC(=O)c1c(C)[nH]c(/C=C2\C(=O)Nc3ccc(F)cc32)c1C` = ?
OUTPUT: 7.8 µM

INPUT: Query AC50 on Melanocortin receptor 3 (Homo sapiens, UniProt P41968) for COc1cc2nc(N3CCN(C(=O)C4CCCO4)CC3)nc(N)c2cc1OC (centres undefined)
OUTPUT: > 30 µM

INPUT: # query: AC50 | item `CCOC(=O)C1=C[C@]2(CC)CCCN3CCc4c(n1c1ccccc41)[C@@H]32` | system: Melanocortin receptor 3 (Homo sapiens, UniProt P41968); also: assay procedure not described here
OUTPUT: > 30 µM

INPUT: Find AC50 (Melanocortin receptor 3 (Homo sapiens, UniProt P41968)) for the entry `COc1ccccc1Oc1c(NS(=O)(=O)c2ccc(C(C)(C)C)cc2)nc(-c2ncccn2)nc1OCCO`
OUTPUT: > 30 µM

----------
For reference, AC50 measured on D(3) dopamine receptor (Homo sapiens, UniProt P35462):
API: value field is a number in µM; no unit string.

INPUT: Please provide the recorded AC50 for `CC(=O)[C@]1(O)Cc2c(O)c3c(c(O)c2[C@@H](O[C@H]2C[C@H](N)[C@H](O)[C@H](C)O2)C1)C(=O)c1ccccc1C3=O` , tested on D(3) dopamine receptor (Homo sapiens, UniProt P35462). Also: assay procedure not described here.
Sequence (P35462 whole entry): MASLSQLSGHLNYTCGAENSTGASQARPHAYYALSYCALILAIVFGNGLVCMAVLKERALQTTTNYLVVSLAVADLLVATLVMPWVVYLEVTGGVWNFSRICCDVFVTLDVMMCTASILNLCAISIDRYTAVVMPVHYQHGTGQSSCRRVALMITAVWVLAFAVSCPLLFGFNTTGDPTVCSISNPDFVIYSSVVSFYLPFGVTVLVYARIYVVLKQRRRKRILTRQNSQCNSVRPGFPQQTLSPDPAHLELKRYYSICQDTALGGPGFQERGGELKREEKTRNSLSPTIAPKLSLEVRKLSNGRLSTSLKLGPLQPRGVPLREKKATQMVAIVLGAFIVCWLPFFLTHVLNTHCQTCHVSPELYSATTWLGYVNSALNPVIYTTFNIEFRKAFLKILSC
OUTPUT: 17

INPUT: Param readout = AC50; param system = D(3) dopamine receptor (Homo sapiens, UniProt P35462); param query = `O=[N+]([O-])c1ccc(O)c2ncccc12` ; response: value; also: assay procedure not described here
OUTPUT: 5.8

INPUT: Query for D(3) dopamine receptor (Homo sapiens, UniProt P35462): what AC50 does the record show for `C[C@H](Cc1ccc(O)c(O)c1)[C@@H](C)Cc1ccc(O)c(O)c1` ?
OUTPUT: 1.8

----------
Record form. Attribute: AC50. Fill in for each entry.

INPUT: Please provide the recorded AC50 for CC(S)C(=O)NCC(=O)O (stereo unspecified) , tested on UniProt P30542.
Sequence (P30542 whole entry): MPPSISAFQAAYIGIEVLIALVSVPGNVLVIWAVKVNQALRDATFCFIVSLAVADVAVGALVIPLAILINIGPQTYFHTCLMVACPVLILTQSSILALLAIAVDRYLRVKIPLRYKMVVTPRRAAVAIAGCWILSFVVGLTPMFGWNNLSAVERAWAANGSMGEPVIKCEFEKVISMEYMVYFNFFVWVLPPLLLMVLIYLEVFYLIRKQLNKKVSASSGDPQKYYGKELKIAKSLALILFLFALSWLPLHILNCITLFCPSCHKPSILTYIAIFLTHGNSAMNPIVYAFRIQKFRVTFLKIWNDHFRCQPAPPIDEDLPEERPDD
OUTPUT: > 30 µM

INPUT: API: value(readout= AC50, system= UniProt P30542, query= CC1OC2(CS1)CN1CCC2CC1 (stereo unspecified) )
OUTPUT: > 10 µM

INPUT: Give UniProt P30542 AC50 for CC(C)NCC(O)c1ccc(O)c(O)c1 (stereo unspecified)
OUTPUT: > 30 µM

INPUT: Enter reported AC50 observed with UniProt P30542 for CC(C)COCC(CN(Cc1ccccc1)c1ccccc1)N1CCCC1 (stereo unspecified)
OUTPUT: > 30 µM

INPUT: Lookup: AC50 / UniProt P30542 / CCOC(=O)c1cncn1[C@H](C)c1ccccc1 [ETOMIDATE]
OUTPUT: > 10 µM

INPUT: Which measured AC50 belongs to `CN1CCN(C2=Nc3ccccc3Oc3ccc(Cl)cc32)CC1` , tested on UniProt P30542?
OUTPUT: > 30 µM

INPUT: // map `CN(C)CCC[C@@]1(c2ccc(F)cc2)OCc2cc(C#N)ccc21` to recorded AC50 (system: UniProt P30542)
OUTPUT: > 30 µM

INPUT: Provide the documented AC50 with UniProt P30542 as the system for `CC(C)c1nc(N(C)S(C)(=O)=O)nc(-c2ccc(F)cc2)c1/C=C/[C@@H](O)C[C@@H](O)CC(=O)O`
OUTPUT: > 30 µM

INPUT: Can you look up AC50 on UniProt P30542 for `C=C[C@@]1(C)CC(=O)[C@]2(O)[C@@]3(C)[C@@H](O)CCC(C)(C)[C@@H]3[C@H](O)[C@H](OC(C)=O)[C@@]2(C)O1` ?
OUTPUT: > 30 µM

INPUT: Please provide the recorded AC50 for `Cc1cc2cc3c(C)cc(=O)oc3c(C)c2o1` , tested on UniProt P30542.
OUTPUT: > 30 µM

INPUT: Reported AC50 for UniProt P30542, given `CCN(CC)CCNC(=O)c1c(C)[nH]c(/C=C2\C(=O)Nc3ccc(F)cc32)c1C` ?
OUTPUT: 6.4 µM

INPUT: For the record `CC(=O)[C@@]1(O)CC[C@H]2[C@@H]3C=C(Cl)C4=CC(=O)[C@@H]5C[C@@H]5[C@]4(C)[C@H]3CC[C@@]21C` , what value of AC50 is listed for UniProt P30542?
OUTPUT: > 10 µM

INPUT: AC50 of CCC1(c2ccccc2)CCC(=O)NC1=O (stereo unspecified) [GLUTETHIMIDE] on UniProt P30542?
OUTPUT: > 10 µM

INPUT: # get_value(readout= AC50, system= UniProt P30542) for `C=C1/C(=C\C=C2/CCC[C@]3(C)[C@@H]([C@H](C)/C=C/[C@@H](O)C4CC4)CC[C@@H]23)C[C@@H](O)C[C@@H]1O`
OUTPUT: > 30 µM

INPUT: What is its AC50 for UniProt P30542? Entry: `Oc1ccc2c(c1)[C@@]13CCCC[C@@]1(O)[C@@H](C2)N(CC1CCC1)CC3`
OUTPUT: > 30 µM

INPUT: Missing value: AC50, UniProt P30542, entry COc1cc2c(cc1OC)C(CCc1ccc(Cl)cc1)N(C)CC2 (stereo unspecified) . Fill in?
OUTPUT: > 30 µM

INPUT: Tell me reported AC50 for C#C[C@]1(OC(C)=O)CC[C@H]2[C@@H]3CCC4=C/C(=N/O)CC[C@@H]4[C@H]3CC[C@@]21CC [NORGESTIMATE] , tested with UniProt P30542.
OUTPUT: > 30 µM

INPUT: Item `CN1CCC(=C2c3ccccc3CCc3cccnc32)CC1` with UniProt P30542 - AC50?
OUTPUT: > 30 µM

INPUT: Give the reported AC50 for `NC(=O)CN1CCCC1=O` (system: UniProt P30542).
OUTPUT: > 30 µM

INPUT: API: value(readout=AC50, system=UniProt P30542) for record `COc1ccc2nc3cc(Cl)ccc3c(Nc3cc(CN4CCCC4)c(O)c(CN4CCCC4)c3)c2n1`
OUTPUT: > 30 µM

INPUT: Given the entry `Cc1ncc2n1-c1ccc(Cl)cc1C(c1ccccc1F)=NC2` , what AC50 was observed with UniProt P30542?
OUTPUT: > 30 µM

INPUT: Give recorded AC50 with UniProt P30542 for the following compound: `CC(=O)N[C@@H](CS)C(=O)O`
OUTPUT: > 30 µM

INPUT: # query: AC50 | item O=C1C(CC[S+]([O-])c2ccccc2)C(=O)N(c2ccccc2)N1c1ccccc1 (stereo unspecified) | system: UniProt P30542
OUTPUT: > 10 µM

INPUT: # query: AC50 | item `C[N@+]1(CCF)[C@@H]2CC[C@H]1C[C@@H](OC(=O)C(O)(c1ccccc1)c1ccccc1)C2` | system: UniProt P30542
OUTPUT: > 30 µM

INPUT: Missing value: AC50, UniProt P30542, entry CC(C(=O)O)c1ccc2c(c1)[nH]c1ccc(Cl)cc12 (stereo unspecified) . Fill in?
OUTPUT: > 30 µM

INPUT: Test system UniProt P30542; read-out AC50; what value for `C=CCNc1nc(NCC=C)nc(N2CCN(C(c3ccc(F)cc3)c3ccc(F)cc3)CC2)n1` ?
OUTPUT: > 30 µM

INPUT: Param readout = AC50; param system = UniProt P30542; param query = COc1ccc(CC2c3cc(OC)c(OC)cc3CC[N+]2(C)CCC(=O)OCCCCCOC(=O)CC[N+]2(C)CCc3cc(OC)c(OC)cc3C2Cc2ccc(OC)c(OC)c2)cc1OC (stereo unspecified) ; response: value
OUTPUT: > 30 µM

INPUT: Quick check: AC50 on UniProt P30542, item `C=C[C@H]1C[N@@]2CC[C@H]1C[C@@H]2[C@@H](O)c1ccnc2ccc(OC)cc12` ?
OUTPUT: > 30 µM

INPUT: Lab request: please report AC50 under test system UniProt P30542 for `CCN1CCN(Cc2ccc(Nc3ncc(F)c(-c4cc(F)c5nc(C)n(C(C)C)c5c4)n3)nc2)CC1`
OUTPUT: > 30 µM

INPUT: Request: AC50, test system UniProt P30542, entry CC12CC3CC(C)(C1)CC(N)(C3)C2 [MEMANTINE]
OUTPUT: > 30 µM

INPUT: Notebook entry, UniProt P30542 assay: AC50 of CCC(C)C(CC)C(N)=O (stereo unspecified) [VALNOCTAMIDE] = ?
OUTPUT: > 30 µM

INPUT: Query for UniProt P30542: what AC50 does the record show for CC(C)(C)NCC(O)c1cc(O)cc(O)c1 (stereo unspecified) ?
OUTPUT: > 30 µM

INPUT: Missing value: AC50, UniProt P30542, entry CCN(CC)CCNC(=O)c1cc(S(C)(=O)=O)ccc1OC [TIAPRIDE] . Fill in?
OUTPUT: > 30 µM

INPUT: Param readout = AC50; param system = UniProt P30542; param query = CC1=C(C)C(=O)C(C(CCCCCC(=O)O)c2ccccc2)=C(C)C1=O (stereo unspecified) ; response: value
OUTPUT: > 30 µM

INPUT: Fill in the recorded AC50 for this compound, with UniProt P30542 as test system: `CCN(CC)CCN1C(=O)CN=C(c2ccccc2F)c2cc(Cl)ccc21`
OUTPUT: > 30 µM

INPUT: Query AC50 on UniProt P30542 for CC(C(=O)O)c1ccc(CC2CCCC2=O)cc1 (stereo unspecified)
OUTPUT: > 30 µM
